Assay: Multiple ascending dose study, plasma pharmacokinetics
Type: in vivo, human (healthy volunteers)
Settings: human, plasma, po, 0.5 mg, 0.5 mg oral QD, Day 12; read-out: AUCtau (mean)
reported.metric: AUC tau (ng·h/mL)
Lab book: enter the figure in ng·h/mL, no units written.

GET /value?item= CC(C)(O)c1cnn2c(-c3ccc(F)c(-c4c(F)cccc4C#N)c3)cnc2n1 [Compound 1] &field=AUC tau returns 198

----------
Assay: Multiple ascending dose study, plasma pharmacokinetics
Assay type: in vivo, human (healthy volunteers)
Settings: human, plasma, po, 0.5 mg, 0.5 mg oral QD, Day 1; read-out: Cmax (mean)
reported.metric: Cmax at 24 h (ng/mL)
Lab book: enter the figure in ng/mL, no units written.

GET /value?item= CC(C)(O)c1cnn2c(-c3ccc(F)c(-c4c(F)cccc4C#N)c3)cnc2n1 &field=Cmax at 24 h returns 4.6

----------
Assay: Multiple ascending dose study, plasma pharmacokinetics
Assay type: in vivo, human (healthy volunteers)
Settings: human, plasma, po, 2 mg, 2.0 mg oral QD, Day 12; read-out: t1/2 (median) (converted)
reported.metric: half-life (h)
Lab book: enter the figure in h, no units written.

GET /value?item= CC(C)(O)c1cnn2c(-c3ccc(F)c(-c4c(F)cccc4C#N)c3)cnc2n1 [Compound 1] &field=half-life returns 52.3

----------
Assay: Multiple ascending dose study, plasma pharmacokinetics
Type: in vivo, human (healthy volunteers)
Settings: human, plasma, po, 1 mg, 1.0 mg oral QD, Day 1; read-out: AUC0-24 (median)
reported.metric: AUC(0-t) at 24 h (ng·h/mL)
Lab book: enter the figure in ng·h/mL, no units written.

GET /value?item= CC(C)(O)c1cnn2c(-c3ccc(F)c(-c4c(F)cccc4C#N)c3)cnc2n1 &field=AUC(0-t) at 24 h returns 117

----------
Experiment: Multiple ascending dose study, plasma pharmacokinetics
Assay type: in vivo, human (healthy volunteers)
Conditions: human, plasma, po, 1 mg, 1.0 mg oral QD, Day 1; read-out: Cmax (median)
reported.metric: Cmax at 24 h (ng/mL)
Lab book: enter the figure in ng/mL, no units written.

GET /value?item= CC(C)(O)c1cnn2c(-c3ccc(F)c(-c4c(F)cccc4C#N)c3)cnc2n1 [Compound 1] &field=Cmax at 24 h returns 8.99

----------
Assay: Multiple ascending dose study, plasma pharmacokinetics
Type: in vivo, human (healthy volunteers)
Settings: human, plasma, po, 0.5 mg, 0.5 mg oral QD, Day 1; read-out: AUC0-24 (mean)
Method: A clinical study was developed to evaluate safety, tolerability, pharmacokinetics, and pharmacodynamics of Compound 1 at plasma steady-state in 40 healthy human volunteers. […] Blood samples were collected, and plasma concentrations were measured using a validated high performance liquid chromatography/liquid chromatography-mass spectrometry/mass spectrometry method. […]
reported.metric: AUC(0-t) at 24 h

GET /value?item= CC(C)(O)c1cnn2c(-c3ccc(F)c(-c4c(F)cccc4C#N)c3)cnc2n1 &field=AUC(0-t) at 24 h returns 53 ng·h/mL

----------
Biological target: human GABAA receptor α5/β3/γ2 (Homo sapiens, UniProt P18507+P31644)
Sequence (P31644 32-462): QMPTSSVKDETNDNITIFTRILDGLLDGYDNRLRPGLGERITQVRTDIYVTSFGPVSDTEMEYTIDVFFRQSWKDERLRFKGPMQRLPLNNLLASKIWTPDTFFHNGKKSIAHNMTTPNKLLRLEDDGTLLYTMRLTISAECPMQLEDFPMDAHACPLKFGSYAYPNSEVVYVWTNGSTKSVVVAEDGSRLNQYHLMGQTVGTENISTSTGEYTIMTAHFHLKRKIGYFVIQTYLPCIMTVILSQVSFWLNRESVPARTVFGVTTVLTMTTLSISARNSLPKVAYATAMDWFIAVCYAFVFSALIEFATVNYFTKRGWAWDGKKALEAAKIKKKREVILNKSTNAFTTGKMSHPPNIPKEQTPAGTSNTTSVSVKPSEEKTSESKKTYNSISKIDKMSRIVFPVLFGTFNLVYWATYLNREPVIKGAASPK
Sequence (P18507 40-475): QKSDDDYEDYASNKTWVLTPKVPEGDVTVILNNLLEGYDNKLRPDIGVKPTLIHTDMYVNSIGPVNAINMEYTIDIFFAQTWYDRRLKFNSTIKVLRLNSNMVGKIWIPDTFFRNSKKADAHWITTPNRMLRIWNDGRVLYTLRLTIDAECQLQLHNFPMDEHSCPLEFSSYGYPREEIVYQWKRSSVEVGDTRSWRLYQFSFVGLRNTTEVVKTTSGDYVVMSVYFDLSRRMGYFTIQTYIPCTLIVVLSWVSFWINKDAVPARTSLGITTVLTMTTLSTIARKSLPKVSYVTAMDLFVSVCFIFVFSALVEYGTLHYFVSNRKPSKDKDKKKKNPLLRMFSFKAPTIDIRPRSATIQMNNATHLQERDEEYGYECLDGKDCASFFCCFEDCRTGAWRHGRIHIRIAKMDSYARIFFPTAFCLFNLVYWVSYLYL
Sequence (P28472 26-473 partner): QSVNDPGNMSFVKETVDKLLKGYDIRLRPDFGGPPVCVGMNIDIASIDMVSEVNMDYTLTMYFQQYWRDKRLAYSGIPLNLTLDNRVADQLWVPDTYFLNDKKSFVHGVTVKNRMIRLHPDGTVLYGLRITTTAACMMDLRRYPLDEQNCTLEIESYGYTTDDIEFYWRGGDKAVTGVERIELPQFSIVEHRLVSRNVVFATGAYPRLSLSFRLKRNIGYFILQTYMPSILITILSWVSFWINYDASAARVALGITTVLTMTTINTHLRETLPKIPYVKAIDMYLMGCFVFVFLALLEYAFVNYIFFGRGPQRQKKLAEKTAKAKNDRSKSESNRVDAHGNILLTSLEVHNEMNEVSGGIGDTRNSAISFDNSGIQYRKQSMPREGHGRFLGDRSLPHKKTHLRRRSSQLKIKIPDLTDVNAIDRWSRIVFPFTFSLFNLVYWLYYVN
Test: SyncroPatch platform, PAM mode, GABAA α5/β3/γ2
reported.metric: EC50 (nM)
Lab book: enter the figure in nM, no units written.

GET /value?item= CC(C)(O)c1cnn2c(-c3ccc(F)c(-c4c(F)cccc4C#N)c3)cnc2n1 &field=EC50 returns 0.2

----------
Test: Multiple ascending dose study, plasma pharmacokinetics
Assay type: in vivo, human (healthy volunteers)
Conditions: human, plasma, po, 2 mg, 2.0 mg oral QD, Day 1; read-out: Cmax (median)
reported.metric: Cmax at 24 h (ng/mL)
Lab book: enter the figure in ng/mL, no units written.

GET /value?item= CC(C)(O)c1cnn2c(-c3ccc(F)c(-c4c(F)cccc4C#N)c3)cnc2n1 [Compound 1] &field=Cmax at 24 h returns 19.9

----------
Target: human GABAA receptor α3/β3/γ2 (Homo sapiens, UniProt P18507+P34903)
Sequence (P34903 29-492): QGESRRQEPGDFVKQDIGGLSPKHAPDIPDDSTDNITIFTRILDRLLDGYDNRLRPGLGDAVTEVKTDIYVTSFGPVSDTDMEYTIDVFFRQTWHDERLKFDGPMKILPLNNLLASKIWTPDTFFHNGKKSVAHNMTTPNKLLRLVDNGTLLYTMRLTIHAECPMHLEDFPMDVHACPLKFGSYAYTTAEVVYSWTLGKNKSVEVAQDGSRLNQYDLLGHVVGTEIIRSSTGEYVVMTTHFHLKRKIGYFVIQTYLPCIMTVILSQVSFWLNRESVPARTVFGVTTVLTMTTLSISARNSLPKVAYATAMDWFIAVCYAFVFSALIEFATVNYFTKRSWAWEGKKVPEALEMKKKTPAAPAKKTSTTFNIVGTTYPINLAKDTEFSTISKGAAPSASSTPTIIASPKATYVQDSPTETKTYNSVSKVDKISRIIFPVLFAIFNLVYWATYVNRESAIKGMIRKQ
Sequence (P18507 40-475): as the sequence (P18507 40-475) above
Sequence (P28472 26-473 partner): as the sequence (P28472 26-473 partner) above
Assay: SyncroPatch platform, PAM mode, GABAA α3/β3/γ2
reported.metric: EC50 (nM)
Lab book: enter the figure in nM, no units written.

GET /value?item= CC(C)(O)c1cnn2c(-c3ccc(F)c(-c4c(F)cccc4C#N)c3)cnc2n1 [Compound 1] &field=EC50 returns 2.47

----------
Experiment: Multiple ascending dose study, plasma pharmacokinetics
Type: in vivo, human (healthy volunteers)
Conditions: human, plasma, po, 0.5 mg, 0.5 mg oral QD, Day 12; read-out: Cmax (mean)
Protocol: A clinical study was developed to evaluate safety, tolerability, pharmacokinetics, and pharmacodynamics of Compound 1 at plasma steady-state in 40 healthy human volunteers. […] Blood samples were collected, and plasma concentrations were measured using a validated high performance liquid chromatography/liquid chromatography-mass spectrometry/mass spectrometry method. […]
reported.metric: Cmax at 288 h
# number then unit; no other words

GET /value?item= CC(C)(O)c1cnn2c(-c3ccc(F)c(-c4c(F)cccc4C#N)c3)cnc2n1 &field=Cmax at 288 h returns 11.7 ng/mL

----------
Experiment: Multiple ascending dose study, plasma pharmacokinetics
Type: in vivo, human (healthy volunteers)
Settings: human, plasma, po; 0.5 h post-dose, all except 1 participant; read-out: individual plasma concentrations versus LLOQ
reported.metric: concentration at 0.5 h

GET /value?item= CC(C)(O)c1cnn2c(-c3ccc(F)c(-c4c(F)cccc4C#N)c3)cnc2n1 &field=concentration at 0.5 h returns > 0.05 ng/mL

----------
Test: Multiple ascending dose study, plasma pharmacokinetics
Format: in vivo, human (healthy volunteers)
Conditions: human, plasma, po, 5 mg, 5.0 mg oral QD, Day 12; read-out: AUCtau (mean)
reported.metric: AUC tau (ng·h/mL)
Lab book: enter the figure in ng·h/mL, no units written.

GET /value?item= CC(C)(O)c1cnn2c(-c3ccc(F)c(-c4c(F)cccc4C#N)c3)cnc2n1 &field=AUC tau returns 1800

----------
Assay: Multiple ascending dose study, plasma pharmacokinetics
Format: in vivo, human (healthy volunteers)
Conditions: human, plasma, po, 1.5 mg, 1.5 mg oral QD, Day 12; read-out: Cmax (median)
reported.metric: Cmax at 288 h (ng/mL)
Lab book: enter the figure in ng/mL, no units written.

GET /value?item= CC(C)(O)c1cnn2c(-c3ccc(F)c(-c4c(F)cccc4C#N)c3)cnc2n1 &field=Cmax at 288 h returns 42.6

----------
Test: Multiple ascending dose study, plasma pharmacokinetics
Assay type: in vivo, human (healthy volunteers)
Conditions: human, plasma, po, 1.5 mg, 1.5 mg oral QD, Day 12; read-out: t1/2 (mean) (converted)
reported.metric: half-life

GET /value?item= CC(C)(O)c1cnn2c(-c3ccc(F)c(-c4c(F)cccc4C#N)c3)cnc2n1 &field=half-life returns 51 h

----------
Experiment: Multiple ascending dose study, plasma pharmacokinetics
Format: in vivo, human (healthy volunteers)
Conditions: human, plasma, po, 1.5 mg, 1.5 mg oral QD, Day 12; read-out: AUCtau (mean)
reported.metric: AUC tau

GET /value?item= CC(C)(O)c1cnn2c(-c3ccc(F)c(-c4c(F)cccc4C#N)c3)cnc2n1 &field=AUC tau returns 706 ng·h/mL

----------
Test: Multiple ascending dose study, plasma pharmacokinetics
Assay type: in vivo, human (healthy volunteers)
Conditions: human, plasma; 0.5 mg oral QD, Day 12; read-out: Tmax (median)
reported.metric: Tmax at 288 h (h)
Lab book: enter the figure in h, no units written.

GET /value?item= CC(C)(O)c1cnn2c(-c3ccc(F)c(-c4c(F)cccc4C#N)c3)cnc2n1 &field=Tmax at 288 h returns 3

----------
Experiment: Multiple ascending dose study, plasma pharmacokinetics
Type: in vivo, human (healthy volunteers)
Conditions: human, plasma; 5.0 mg oral QD, Day 1; read-out: Tmax (median)
reported.metric: Tmax at 24 h (h)
Lab book: enter the figure in h, no units written.

GET /value?item= CC(C)(O)c1cnn2c(-c3ccc(F)c(-c4c(F)cccc4C#N)c3)cnc2n1 [Compound 1] &field=Tmax at 24 h returns 4.5

----------
Assay: Multiple ascending dose study, plasma pharmacokinetics
Type: in vivo, human (healthy volunteers)
Settings: human, plasma, po, 0.5 mg, 0.5 mg oral QD, Day 1; read-out: Cmax (median)
reported.metric: Cmax at 24 h (ng/mL)
Lab book: enter the figure in ng/mL, no units written.

GET /value?item= CC(C)(O)c1cnn2c(-c3ccc(F)c(-c4c(F)cccc4C#N)c3)cnc2n1 [Compound 1] &field=Cmax at 24 h returns 4.58

----------
Test: Multiple ascending dose study, plasma pharmacokinetics
Type: in vivo, human (healthy volunteers)
Settings: human, plasma, po, 1.5 mg, 1.5 mg oral QD, Day 12; read-out: AUCtau (median)
reported.metric: AUC tau

GET /value?item= CC(C)(O)c1cnn2c(-c3ccc(F)c(-c4c(F)cccc4C#N)c3)cnc2n1 &field=AUC tau returns 738 ng·h/mL

----------
Assay: Multiple ascending dose study, plasma pharmacokinetics
Format: in vivo, human (healthy volunteers)
Conditions: human, plasma, po, 2 mg, 2.0 mg oral QD, Day 12; read-out: AUCtau (median)
reported.metric: AUC tau (ng·h/mL)
Lab book: enter the figure in ng·h/mL, no units written.

GET /value?item= CC(C)(O)c1cnn2c(-c3ccc(F)c(-c4c(F)cccc4C#N)c3)cnc2n1 [Compound 1] &field=AUC tau returns 891
